# method notes: NCI Yeast Anticancer Drug Screen. Data for the mec2-1 strain (AID 157)
# condition label: S. cerevisiae mec2-1 strain, at 50.0 µM, hits give high values
# Experimental: Growth inhibition of yeast strains with defined genetic alterations is measured as a screen for potential anti-cancer activity. Selected strains with alterations in DNA damage repair or cell cycle control were exposed to compounds and growth inhibition was measured relative to vehicle treated controls. The strain used in this assay is mec2-1
The panel holds about 79,000 compounds, 15% with a hit somewhere; the sample as a whole holds those more often.
Response key: Condition met means growth inhibition >= 10%; Condition not met means growth inhibition < 10%.

C1=C(/C=C2\CCCc3c(-c4ccccc4)cc(-c4ccccc4)[o+]c32)CCC/C1=C\C1=C2OC(c3ccccc3)=CC(c3ccccc3)=C2CCC1; Condition met
COc1ccc(O)c(/C=C/[N+](=O)[O-])c1; Condition met

Decide: is the reported value of growth inhibition for N#CCCCBr equal to or greater than 10%? Condition not met

Could you tell me if the measured growth inhibition of CC(C)[CH2][Sn]([CH2]C(C)C)([CH2]C(C)C)[C](C)(C)C reaches 10% or more? Condition met

Could you verify whether the entry O=P(O)(O)CCCCP(=O)(O)O.[Zn+2] shows growth inhibition of no less than 10%? Condition not met

Has CNP(=O)(Oc1cc(Cl)c(Cl)cc1Cl)N1CCN(c2ccccc2)CC1 (stereo not drawn) a recorded growth inhibition greater than or equal to 10%? Condition met

Exam item: decide whether the reported growth inhibition for CN1CCC2(CC1)c1ccccc1-c1ccccc12 is at least 10%. Condition not met

Could you verify whether the entry CC[C@@]1(O)C[C@H](OC2CC(N(C)C)C(O)C(C)O2)c2c(cc3c(c2O)C(=O)c2c(O)ccc(O)c2C3=O)[C@H]1C(=O)OC (stereo partly drawn) shows growth inhibition of no less than 10%? Condition met

Confirm if growth inhibition reported for the compound CC1=NNC(=O)C1(Br)Br is 10% or above. Condition met

###

# method notes: NCI Yeast Anticancer Drug Screen. Data for the sgs1 mgt1 strain (AID 161);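 also: 0% = growth of cultures given vehicle only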
# condition label: S. cerevisiae sgs1 mgt1 strain, at 50.0 µM, hits give high values
This is part of a sample that, as a whole, favours compounds with a hit. Of some 79,000 tested, about 15% had one in any assay. Active and inactive are the calls of the source. Rule as the data show it: active = growth inhibition above about 70%; inactive = the rest.
attribute measured: growth inhibition

Here's what some known entries look like.
CCCCCCNCCc1cnc[nH]1; 15% (inactive)
CCC(CO)N=Cc1ccccc1O.CCC(CO)N=Cc1ccccc1O.[Ni] (stereo not drawn); 31.9% (inactive)
c1cc[c]([Sn]2([c]3ccccc3)[O]CCNCC[O]2)cc1; 10.4% (inactive)
NCCNCCN1CC1; 39.9% (inactive)
CCC1(CC(C)(C)Cl)C(=O)NC(=O)NC1=O; -21.4% (inactive)
O=C(O)C1CCCC(C(=O)O)[N-]1.O=C(O)C1CCCC(C(=O)O)[N-]1.[Cr+2] (stereo not drawn); 15.8% (inactive)

Consider the additional molecule presented here.
Fill in growth inhibition for record CC(F)C(N)C(=O)O (stereo not drawn) -7.75% (inactive)

###

# method notes: NCI Yeast Anticancer Drug Screen. Data for the sgs1 mgt1 strain (AID 161);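 also: 0% = growth of cultures given vehicle only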
# condition label: S. cerevisiae sgs1 mgt1 strain, at 50.0 µM, hits give high values
Compounds without any hit were thinned out: in the full panel of roughly 79,000, 15% have a hit. The source made the active and inactive calls. Cut-off read from the data, not from the text of the source: active = growth inhibition above about 70%; inactive = the rest.
attribute measured: growth inhibition

Use the examples below as a reference point.
CCN1C(=O)C(=Cc2ccc(-c3ccccc3)cc2)C(=O)N(CC)C1=S; 23.1% (inactive)
Cc1cc(C)cc(C(O)(C(=O)O)c2ccccc2)c1 (stereo unspecified); -5.45% (inactive)
O=[N+]([O-])c1ccc(CCl)cc1; 10.7% (inactive)

State its growth inhibition for this molecule: NC(=O)/C=C/c1ccc([As]=O)cc1 (stereo unspecified) 99.3% (active)

Hello, please tell me recorded growth inhibition for this one: CCOC(=O)C(=O)CC(=O)[C@H]1CC[C@H]2[C@@H]3CC[C@@H]4C[C@H](O)CC[C@]4(C)[C@H]3C(=O)C[C@]12C 40.8% (inactive)

Quickly give me recorded growth inhibition for ClCCN(CCCl)c1ccc(N=Cc2ccccc2)cc1 7.35% (inactive)

Give recorded growth inhibition. O=P1(c2ccccc2)NC2CCCCC2N1 (stereo unspecified) -5.3% (inactive)
